# protocol_summary: yeast display, Sf9 membrane polyspecificity reagent, FACS + sequencing; frameworks hold sequencing errors
measurement_label: polyreactivity (PSR sort gate)

// worked examples, polyreactivity (PSR sort gate) included
# macromolecule_sequence, polyreactivity (PSR sort gate)
measured = [
    ("QVQLVESGGGFVQAGGSRRLSCAASGRIFDDNAMGGYRPAPGKERELVAAISSGDYTKYADSVKGRFTISRDNSKNSVYLQMNSLKPEDTAVYYCAADIVSDSFYQPEYDYWGQGTQVTVSS", "low polyreactivity"),
    ("QVQLVESGGGLVQAGGSLRLSSAASGRIFLLNAMGWYRQAPGKERELVADISFNGGSTYYADSVKGRFTISRDNAKNSVYLQMNSLKPEDTAVYYCAVGSFGVSAYSYYYWGQGTQVTVSS", "low polyreactivity"),
    ("QVQLVESGGGLFHAGGRLRLSCAASGYTFRYYAMGWSRQAPGKERELVAGIDSGGGSTYYAASVKGRFTISRDNAKYTVYLQMNSLKPEDTAVYYCAVDTYSWYGEYYYWGQGTQVTVSS", "high polyreactivity"),
    ("QEQLQESGVGLVQAGGSLRLICEASGSISQAWYMGWYRQAPGKERELVAAINVGAITYYADSVKGRFSISRDNAKNTVYLPMNSLTPDDTAVYYCAVDQYSEAYYDYWGQGTQATVSS", "high polyreactivity"),
    ("QDQLVESGGGLVQAGGSLRLSCAASGRNFSYYAMGWYRQAPGKERELVAAIRWSGGRTYYADSVKGRFTISRDNAKNTVYLQMNSLKPEDTAVYYCAAEGAYRLAYDSWGQGTQVTVSS", "high polyreactivity"),
    ("QVQLVESGGGLVQAGGSLRLSCAASGRIFSNNAMGWYRQAPGKERELVAASNRSGDGTYYADSVKGRFTSSRDHAKNTVYLQMNSLKPEDTAVYYCAVRYYWGYTSYGYWGQGTQVTVSS", "high polyreactivity"),
    ("QVQLVESVGGLVQAGGSLRLSCAASGFTFGPYDMGWYRQAPGKERELVAVIIGGDSTNYADSVKGRFTISRDNAKNTVYLQMNSLKPEDTAVYYCAADYIDRVGWMDYWGQGTQVTVSS", "low polyreactivity"),
    ("QVQLVESGGGLVQAGGSLRLSSAASGGILPIYAMGWYRQAPGKERELVATITGSGGGTYADSVKGRFTISRDNAKNTVYLQMNSLKPEDTAVYYCNADLGPVGHIDGYSYYDYDYWGQGTQVTVSS", "low polyreactivity"),
    ("QVQLVESGGGLVQAGGSLRLSCAASGLIFVYYTMGWYRQAPGKERELVARISQSGGTTYYADSVKGRFTISRDNAKNTVYLQMNSLKPEDTAVYYCNARRVGVHYRYDYWGQGTQVTVSS", "high polyreactivity"),
    ("QVQLVESGGGLVQAGGSLRLSCAASGFTFRTNAMGWYRQAPGKERELVAAISTGARTYYADSVKGRFTISRDNAKNTVYLQMNSLKPEDTAVYYCNKVLRRFLSRYDYWGQGTQVTVSS", "high polyreactivity"),
]

Request: What value of measured polyreactivity (PSR sort gate) is listed for QVQLVESGGGLVQAGGSLRLSCAASGSIFVGYAMGWYRQAPWKERELVAAISKRGGGTYYADSVKGRFTISRDNAKNTVYLHMNSLKPEDTAVYYCNAVPVHLDVASGYYYWGQGTQVTVSS ?
Result: high polyreactivity

----------
# protocol_summary: yeast display, Sf9 membrane polyspecificity reagent, FACS + sequencing; frameworks hold sequencing errors
measurement_label: polyreactivity (PSR sort gate)

The examples below pair each entry with its known result.
# macromolecule_sequence, polyreactivity (PSR sort gate)
rows = [
    ("QVQLVESGGGLVQAGGSLRLSCAASGSTFVKYVMGWYRQAPGKERELVAAISRSSVRTSYADSVKGRFTISRDNAKNTVYLQMNSLKPEDTAVYYCAAEYQYGGTTFDYWGQGTQVTVSS", "high polyreactivity"),
    ("QVQLVESGGGLVQAGGSLRLSCAASGRIFTYYTMGWYRQAPGKERELVAAISWSGGRTYYADSVKGRFTISRDNAKNTVYLQMNSLKPEDTAVYYCARLQDSRESPWRGYYWGQGTQVTVSS", "high polyreactivity"),
    ("QVQLVESGGGLVQAGGSLRLSWAASGSIFYWNAMGWYRQAPGKERELVATITITTSTNYADSVKGRFTISRDNAKNTVYLQMNSLKPEDTAVYYCNAGAPYRYLDEYNYWGQGTQVTVSS", "low polyreactivity"),
    ("QVQLVESVGGLVQAGGSLRLSCAASGIFVDNAMGWYRQAPGTETELVAPITSSTDSTYYADSVKGRFTISRDNAKNTVALQMNSLKPEDTAVYYCAVARPGGFYFLVHYGYGYWGQGTQVTVSS", "low polyreactivity"),
    ("QVQLVESGGGLVQAGGSLRLICAASGRTFYYNAMGWYRQAPGKERELVAAINRGTGGTFYADSVKGRFTISRDNAKNTVYLQMNSLKPEDTAVYYCAADLDGSSEYEYWGQGTQVTVSS", "low polyreactivity"),
    ("QVQLVESGGGLVQAGGSLRLSCAASGRTFNYYVMGWFRQAPGKERELVATINWSGGSTYYADSVKGRFTISRDNAKNTVYLQMNSLKPEDTAVYYCAARWFYHRNHNRNYWGQGTQVTVSS", "high polyreactivity"),
    ("QVQLVESGGGLVQAGGSLRLSCAASGLIFKYYAMGWYRQAPGKERELVASISRGGVTTYYADSVKGRFTISRDNAKNTVYLQMNSLKPEDTAVYYCAARFRYAPFYHWGQGTQVTVSS", "high polyreactivity"),
    ("QVQLVESGGGLVQAGGSLRLSCAASGSTFDGNAMGWYRPAPGKERELVAAITWRDGSTSYADSVKGRFTISRDNAKNTVYLQMNSLKPEDTAVYYCNADPGYLDEEYWGQGTQVTVSS", "low polyreactivity"),
    ("QDQLVESGRGIFKAGGSLRLSCAASGSIFGDNAMGWSRHAPGKDRELVAAISSGGPTYADSVKGRFTISRDNAKNTVYLQMNSLKAEDSAVYFCNATDGINPYDLTDFEFDYWGQGTEVTVSS", "low polyreactivity"),
    ("QVQLVESGGGLVQAGGSLRLSCAASGSTFNHYAMGWYRQAPGKDRELVAAITKSGGSTYADSVKGRFTISRDNAKNSVYLQMNSLKPEDTAVYFCAAGRRKYGTKGRGDYWGQGTQVTVSS", "low polyreactivity"),
]

For the next question, use this sequence.
Request: Looking for the measured polyreactivity (PSR sort gate) of IIQAGGSLRLSCAASGRTFSGYAMGWYRPAPGKERELIADITSGGSTYYADSVKGRFTISRDNAKNTVYLQMNSLKPEDTAVYYCNKVYPVVLYEPQYDYWGQGTQVTVSS , can you help?
Result: low polyreactivity

----------
# protocol_summary: yeast display, Sf9 membrane polyspecificity reagent, FACS + sequencing; frameworks hold sequencing errors
measurement_label: polyreactivity (PSR sort gate)

In the examples that follow, each entry is paired with its recorded polyreactivity (PSR sort gate).
# macromolecule_sequence, polyreactivity (PSR sort gate)
records = [
    ("QDQLVESGGGLVQAGGSLRLSCAASGRNFRYYTMGWYRQAPGKERELVAAITRRGGITNYADSVKGRFTISRDNGKNTVYLQMNSLKPEDTAVYYCAAKYVSQCYDYWGQGTQVTVSS", "high polyreactivity"),
    ("QVQLVESGGGLVQAGGSLRLSCAASGSTFSIYTMGWYRQAPGKERELVAAINTGDGDTYYADSVKGRFTISRDNAKNTFYLQMNSLKPEDTAVYYCAAVYSQLSNLYYYWGQGTQVTVSS", "low polyreactivity"),
    ("QVQLVESGGGLVQAGGSLRLSCAASGFIFSSYAMGWYSQAPGKERDLGAAISKSGDRTSYADSVKGRFTISRDNAKNTVYLQMNSLKPEDTAVYYCAKDRLYRTKKYRDMYYWGQGTQVTVSS", "high polyreactivity"),
    ("QVQLVESGGGLVQAGGSLGLSCAASGFSFDRNAMGWYRQAPGKERGLVAAISSSGGRTYYPDSVKGRFTISRDYAKKTVYLQMNSLKPDDTAVYYCAAKLSRRYYYWGQGTQVTVSS", "high polyreactivity"),
]

Moving on to the next sequence.
Request: Entry QVQLVESGGGLVQAGGSLRLSCAASGRIFLTYAMGWYRQAPGKERELVAAITDNGGDTYYADSVKGRFTISRDNAKNTVYLQMNSLKPEDTAVYYCAKTTLSVAGLDFDYWGQGTQVTVSS has what polyreactivity (PSR sort gate)?
Result: low polyreactivity

----------
# protocol_summary: yeast display, Sf9 membrane polyspecificity reagent, FACS + sequencing; frameworks hold sequencing errors
measurement_label: polyreactivity (PSR sort gate)

Would you please look over these solved cases?
# macromolecule_sequence, polyreactivity (PSR sort gate)
rows = [
    ("QVQLVESGGGLVQAGGSLRLSCAASGFTFTRNAMGWYRQAPGKERELVAAISKRGGTTYYADSVKGRFTISRDNAKNTVYLQMNSLKPEDTAVYYCAKDGGITGGYWGQGTQVTVSS", "high polyreactivity"),
    ("QVQLVDSGGGLVQAGGSLRLSCAASGRTLWYYTMGWYRQAPGKERELVADITRGTSTNYADSVKVRFTISRDNAKNTVYLQMNSLKPEDTAVYYCNRAHGRSRYSRDYDSWGQGTQVTVSS", "low polyreactivity"),
    ("QVQLVESGGGLVQPGGSLRLSCAASGFIFSYYAMGWYRQAPGKERELVAAITQSGGGTYYADSVKGRFTISRDNAKNTVYLQMNSLKPEDTAVYYCAVLYYQTRQVYSGYSRYWLYSSRYDYWGQGTQVTVSS", "high polyreactivity"),
    ("QVQLVESGGGIVQAGGSLRLSCAASGSIQRYNDMGWYRQAPGKERELVAAISRSGGSTYYTDSVKGRFTISRDNAKNTDYLQMNSLKPEDTAVYFCYKASYTTVYAKYYYWGLGTQVTVSS", "high polyreactivity"),
    ("QVQLVESGGGLDQAGGSLRLSCDASGFIFVRYAMGWSRQAPGKERELVAGINSGGSTSYADSVKGRFTISRDNAKNTVYLQMNSLKPEDSAVYYCNADVYVGYEYEYWGQGTQVTVSS", "low polyreactivity"),
    ("QVQLVESGGCLVQAGGSLRLSCAASGRTFKQYAIGWSRQAPGKERELVAAITSGGSTYYADSVKGRFTISRDNAKNTVSLHMNSLKPEDNAVYYCNKESYFDTYRRYDSWGQCTQVTVSS", "low polyreactivity"),
    ("QVQLVESGGGLVQAGGSLRLSCAASGFTFYANAMGWYRQAPGKERELVAAITQGGDSTYFADSVKGRFTISRDNAKKSVYLQLNSLKREDTAVYYCNTDLLCEYDYWGQGTQVTVSS", "low polyreactivity"),
    ("QVQLVESGGGLVQAGGSLRLSCAASGSTFRVNAMAWYRHAPGKERELVADITNGGSTYYADSVKGRFTISRDNAKNTVYLQMNSLKPEDTAVYYCNARPSYLRFKWYSYDYWGQGTQVTVSS", "high polyreactivity"),
    ("QVQLVESGGGLVQAGGSLRLSCAASGSTSYLYAMGWYRQAPGKERELVATITTRSGSTYYADSVKGRFTISRDNAKNTVYLQINSLKPEDTAVYYCAARWISVLSEGAEHDYWGQGTQVTVSS", "low polyreactivity"),
    ("QVQLVESGGGLVQAGGSLRLSCAASGSTFIANTMGWYRQAPGKERELVAAITDSGGSTYYADSVKGRFTISRDNAKNTVYLQMNSLKPEDTAVYYCNADYVYVFIRAWSYDYWGQGTQVTVSS", "low polyreactivity"),
]

Request: # get_value(readout='polyreactivity (PSR sort gate)', item= QDQLVESGGGLVQAGRSLRLSCAASGRTFRTYTMGWYRQAPGKERELVAAISRGGSTNYADSVKGRFTISRDNEKNTVYLQMNSLKPEDTAVYYCNAKASFCSPYDYWGQGTQVTVSS )
Result: high polyreactivity
